test: Pharmacokinetics assay in rats; format: in vivo, SD rats; conditions: male, SD, plasma; rat, PO 5 mg/kg; read-out: Area under curve AUC
property measured: AUC (ng·h/mL)

{"columns": ["compound", "observed value"],
 "data": [
  ["Cc1nc(N2CCC3(CC2)CO[C@@H](C)[C@H]3N)n2ccnc2c1-c1cccc(Cl)c1Cl (single isomer, unassigned) [The atropisomer with a RT of 1.495 minutes in Examples 3 and 4]", 12500],
  ["CNc1nccc(Sc2cnc(N3CCC4(CC3)Cc3ncccc3[C@H]4N)n3ccnc23)c1Cl", 25200],
  ["CNc1nccc(Sc2c(C)nc(N3CCC4(CC3)Cc3ncccc3[C@H]4N)n3ccnc23)c1Cl", 3880],
  ["C[C@@H]1OCC2(CCN(c3ncc(Sc4cccnc4C(F)(F)F)c4nccn34)CC2)[C@@H]1N", 3210]
]}

----------
experiment: Pharmacokinetics assay in rats; format: in vivo, SD rats; conditions: male, SD, plasma; rat, IV 1 mg/kg; read-out: Clearance CL_obs
clearance overview

{"columns": ["compound", "unit descriptor", "clearance"],
 "data": [
  ["CNc1nccc(Sc2c(C)nc(N3CCC4(CC3)Cc3ncccc3[C@H]4N)n3ccnc23)c1Cl [Example 41]", "mL/min/kg", 14.6],
  ["Cc1nc(N2CCC3(CC2)CO[C@@H](C)[C@H]3N)n2ccnc2c1-c1cccc(Cl)c1Cl (single isomer, unassigned) [The atropisomer with a RT of 1.495 minutes in Examples 3 and 4]", "mL/min/kg", 5.13],
  ["CNc1nccc(Sc2cnc(N3CCC4(CC3)Cc3ncccc3[C@H]4N)n3ccnc23)c1Cl [Example 43]", "mL/min/kg", 2.52],
  ["C[C@@H]1OCC2(CCN(c3ncc(Sc4cccnc4C(F)(F)F)c4nccn34)CC2)[C@@H]1N [Example 17]", "mL/min/kg", 21.5]
]}

----------
system: p-ERK in KYSE-520 cells; assay: Determination of p-ERK in KYSE-520 cells (HTRF); type: cell-based; settings: Homo sapiens, KYSE-520, 2 h
Each entry falls into one class according to its IC50; the ranges are bucket 1 = under 10 nM, bucket 2 = from 10 nM up to 200 nM, bucket 3 = 200 nM and over

{"columns": ["compound", "group label"],
 "data": [
  ["C[C@@H]1OCC2(CCN(c3nc(N)c(-c4cccc(Cl)c4Cl)c4nccn34)CC2)[C@@H]1N", "bucket 2"],
  ["Cc1nc(N2CCC3(CCC[C@H]3N)CC2)n2ccnc2c1-c1cccc(Cl)c1Cl", "bucket 3"],
  ["Nc1nc(N2CCC3(CCC[C@H]3N)CC2)n2ccnc2c1Sc1cccnc1C(F)(F)F", "bucket 2"],
  ["C[C@@H]1OCC2(CCN(c3nc(N)c(Sc4ccnc(F)c4Cl)c4nccn34)CC2)[C@@H]1N", "bucket 2"],
  ["N[C@@H]1CCCC12CCN(c1ncc(Sc3cccnc3C(F)(F)F)c3nccn13)CC2", "bucket 2"],
  ["C[C@@H]1OCC2(CCN(c3nc(N)c(Sc4cccnc4C(F)(F)F)c4nccn34)CC2)[C@@H]1N", "bucket 2"],
  ["Nc1nc(N2CCC3(CC2)Cc2ccccc2[C@H]3N)n2ccnc2c1Sc1cccnc1C(F)(F)F", "bucket 1"],
  ["Cc1nc(N2CCC3(CC2)Cc2ncccc2[C@H]3N)n2ccnc2c1Sc1ccnc(N)c1Cl", "bucket 2"],
  ["N[C@@H]1c2ccccc2CC12CCN(c1ncc(Sc3cccnc3C(F)(F)F)c3nccn13)CC2", "bucket 1"],
  ["Cc1nc(N2CCC3(CC2)CO[C@@H](C)[C@H]3N)n2ccnc2c1-c1cccc(Cl)c1Cl (single isomer, unassigned) [The atropisomer with a RT of 1.495 minutes in Examples 3 and 4]", "bucket 2"],
  ["Cc1nc(N2CCC3(CC2)Cc2ccccc2[C@H]3N)n2ccnc2c1-c1cccc(Cl)c1Cl", "bucket 3"],
  ["Cc1nc(N2CCC3(CC2)CO[C@@H](C)[C@H]3N)n2cnnc2c1-c1cccc(Cl)c1Cl", "bucket 3"]
]}

----------
biological target: SHP2 E76K (Homo sapiens, UniProt Q06124, E76K); construct: recombinantly expressed full-length SHP2 (aa 1-593) with E69K and E76K; purchased Novoprotein Scientific Inc; assay: In vitro activity on SHP2 mutant E76K phosphatase; format: biochemical; details: SHP2 E76K the activated polypeptide was added IC50, activated polypeptide IRS1 added
Sequence (Q06124 whole entry E76K, the tested form may be a part): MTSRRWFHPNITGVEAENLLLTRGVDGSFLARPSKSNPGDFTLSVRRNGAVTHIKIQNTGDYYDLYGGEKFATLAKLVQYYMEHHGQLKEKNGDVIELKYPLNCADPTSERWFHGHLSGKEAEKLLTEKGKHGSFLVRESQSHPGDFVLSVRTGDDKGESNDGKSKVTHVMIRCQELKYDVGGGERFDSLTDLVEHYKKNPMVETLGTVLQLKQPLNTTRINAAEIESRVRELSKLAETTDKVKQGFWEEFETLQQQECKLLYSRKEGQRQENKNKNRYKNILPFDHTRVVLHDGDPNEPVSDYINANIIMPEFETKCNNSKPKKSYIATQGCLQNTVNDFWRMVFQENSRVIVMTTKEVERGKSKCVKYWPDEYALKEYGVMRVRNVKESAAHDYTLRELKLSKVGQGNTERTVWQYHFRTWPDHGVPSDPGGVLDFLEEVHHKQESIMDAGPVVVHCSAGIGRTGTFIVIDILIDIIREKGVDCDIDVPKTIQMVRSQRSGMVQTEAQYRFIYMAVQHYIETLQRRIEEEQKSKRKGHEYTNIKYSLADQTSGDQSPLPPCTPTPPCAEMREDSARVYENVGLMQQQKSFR

{"columns": ["compound", "IC50"],
 "data": [
  ["CNc1nccc(Sc2c(C)nc(N3CCC4(CC3)Cc3ncccc3[C@H]4N)n3ccnc23)c1Cl", "0.134 µM"]
]}

----------
pIC50 overview
target: hERG potassium channel (Homo sapiens); assay: hERG current inhibition experiment (manual patch clamp, CHO hERG cells); conditions: whole-cell patch clamp, tail current
Sequence (Q12809 whole entry): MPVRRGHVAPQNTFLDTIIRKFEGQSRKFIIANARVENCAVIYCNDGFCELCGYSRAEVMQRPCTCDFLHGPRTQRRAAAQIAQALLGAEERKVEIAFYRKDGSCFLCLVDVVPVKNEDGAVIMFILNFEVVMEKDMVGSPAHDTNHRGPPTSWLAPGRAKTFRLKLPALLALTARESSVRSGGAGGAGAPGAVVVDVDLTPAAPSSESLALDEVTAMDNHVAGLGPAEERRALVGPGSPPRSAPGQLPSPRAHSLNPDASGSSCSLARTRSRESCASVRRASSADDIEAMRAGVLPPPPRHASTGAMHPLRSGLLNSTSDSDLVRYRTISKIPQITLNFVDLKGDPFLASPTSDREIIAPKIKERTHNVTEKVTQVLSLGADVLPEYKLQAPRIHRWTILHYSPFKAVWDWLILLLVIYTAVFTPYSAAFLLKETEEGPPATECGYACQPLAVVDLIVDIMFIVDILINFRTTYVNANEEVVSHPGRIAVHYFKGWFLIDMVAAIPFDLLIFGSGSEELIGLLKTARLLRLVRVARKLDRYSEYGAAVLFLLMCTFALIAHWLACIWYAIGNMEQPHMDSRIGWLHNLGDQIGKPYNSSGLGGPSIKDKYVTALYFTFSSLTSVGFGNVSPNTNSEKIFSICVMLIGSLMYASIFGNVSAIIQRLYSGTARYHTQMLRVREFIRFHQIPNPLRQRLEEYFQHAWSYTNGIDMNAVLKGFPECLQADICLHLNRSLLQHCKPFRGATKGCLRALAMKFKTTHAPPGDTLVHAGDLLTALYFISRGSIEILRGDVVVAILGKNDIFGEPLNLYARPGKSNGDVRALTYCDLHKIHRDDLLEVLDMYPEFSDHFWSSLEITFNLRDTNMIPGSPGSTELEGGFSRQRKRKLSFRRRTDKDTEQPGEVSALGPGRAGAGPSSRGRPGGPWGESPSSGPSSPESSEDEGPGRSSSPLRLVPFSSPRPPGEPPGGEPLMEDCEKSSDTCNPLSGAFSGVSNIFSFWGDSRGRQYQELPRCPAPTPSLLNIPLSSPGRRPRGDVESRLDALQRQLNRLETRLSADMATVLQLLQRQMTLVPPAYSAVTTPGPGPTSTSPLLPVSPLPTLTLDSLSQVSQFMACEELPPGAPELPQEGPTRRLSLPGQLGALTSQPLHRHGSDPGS
pIC50: −log10 of the molar value.

{"columns": ["compound", "lt gt eq", "pIC50"],
 "data": [
  ["CNc1nccc(Sc2c(C)nc(N3CCC4(CC3)Cc3ncccc3[C@H]4N)n3ccnc23)c1Cl", "=", 4.99],
  ["Cc1nc(N2CCC3(CC2)Cc2ncccc2[C@H]3N)n2ccnc2c1Sc1ccnc(N)c1Cl", "<", 4.52],
  ["Cc1nc(N2CCC3(CCC[C@H]3N)CC2)n2ccnc2c1-c1cccc(Cl)c1Cl", "=", 5.67],
  ["CNc1nccc(Sc2cnc(N3CCC4(CC3)Cc3ncccc3[C@H]4N)n3ccnc23)c1Cl", "=", 4.99],
  ["Cc1nc(N2CCC3(CC2)CO[C@@H](C)[C@H]3N)n2cnnc2c1-c1cccc(Cl)c1Cl", "=", 5.72],
  ["C[C@@H]1OCC2(CCN(c3nc(N)c(Sc4cccnc4C(F)(F)F)c4nccn34)CC2)[C@@H]1N", "<", 4.52],
  ["N[C@@H]1c2cccnc2CC12CCN(c1ncc(Sc3ccnc(NC4CC4)c3Cl)c3nccn13)CC2", "=", 5.40],
  ["C[C@@H]1OCC2(CCN(c3ncc(Sc4cccnc4C(F)(F)F)c4nccn34)CC2)[C@@H]1N", "=", 4.91],
  ["Cc1nc(N2CCC3(CC2)CO[C@@H](C)[C@H]3N)n2ccnc2c1-c1cccc(Cl)c1Cl", "=", 5.58]
]}
